SYSTEM NAME: human RAF1 (Homo sapiens, UniProt P04049)
Sequence (P04049 whole entry): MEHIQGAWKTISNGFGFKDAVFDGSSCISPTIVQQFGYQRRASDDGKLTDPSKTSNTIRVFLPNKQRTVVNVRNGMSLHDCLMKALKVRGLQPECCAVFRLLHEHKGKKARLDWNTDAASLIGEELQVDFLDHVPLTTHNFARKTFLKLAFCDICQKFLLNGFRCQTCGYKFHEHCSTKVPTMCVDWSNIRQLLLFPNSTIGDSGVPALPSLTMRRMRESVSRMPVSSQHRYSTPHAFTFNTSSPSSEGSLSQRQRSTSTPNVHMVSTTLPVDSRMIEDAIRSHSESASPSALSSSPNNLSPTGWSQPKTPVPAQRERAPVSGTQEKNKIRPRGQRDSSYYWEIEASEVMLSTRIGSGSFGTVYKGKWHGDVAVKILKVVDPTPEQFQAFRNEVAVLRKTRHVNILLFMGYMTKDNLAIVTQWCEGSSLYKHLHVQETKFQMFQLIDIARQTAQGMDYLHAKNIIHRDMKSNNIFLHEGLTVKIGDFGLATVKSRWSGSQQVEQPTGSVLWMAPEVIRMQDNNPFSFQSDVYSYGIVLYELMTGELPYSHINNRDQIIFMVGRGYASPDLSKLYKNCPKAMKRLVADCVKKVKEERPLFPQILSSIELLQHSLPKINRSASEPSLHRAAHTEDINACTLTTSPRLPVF
MEASUREMENT PROTOCOL: Protein kinase assay (33P-ATP filter binding), human RAF1, 10-dose IC50
RUN CONDITIONS: MEK1 (K97R) substrate 3 micromolar, ATP 10 micromolar, read-out: RAF-1 IC50

{"COMPOUND": "Cc1cc(F)c(NC(=O)NCC(F)(F)C(F)(F)F)cc1-c1cc(OCCO)nc(N2CCOCC2)c1", "IC50": "< 0.01 µM"}
{"COMPOUND": "Cc1cc(F)c(NC(=O)N2CCO[C@@H](C(C)(F)F)C2)cc1-c1cc(OCCO)nc(N2CCOCC2)c1 (single isomer, unassigned) [Example 58]", "IC50": "< 0.01 µM"}
{"COMPOUND": "Cc1cc(F)c(NC(=O)N2CC[C@H](CC(F)(F)F)C2)cc1-c1cc(O[C@H](C)CO)nc(N2CCOCC2)c1 (single isomer, unassigned)", "IC50": "< 0.01 µM"}

---

SYSTEM NAME: human RAF1 (Homo sapiens)
MEASUREMENT PROTOCOL: Protein kinase assay (33P-ATP filter binding), human RAF1, 10-dose IC50
RUN CONDITIONS: MEK1 (K97R) substrate 3 micromolar, ATP 10 micromolar, read-out: RAF-1 IC50

{"MOLECULE": "Cc1cc(F)c(NC(=O)N2C[C@H](C(F)(F)F)C[C@@H]2C)cc1-c1cc(OCCO)nc(N2CCOCC2)c1 (single isomer, unassigned) [Example 60]", "SYSTEM NAME": "human RAF1 (Homo sapiens)", "IC50": "< 0.01 µM"}
{"MOLECULE": "Cc1ccc(NC(=O)N2CC[C@@H](OC(F)(F)F)C2)cc1-c1cc(O[C@@H](C)CO)nc(N2CCOCC2)c1", "SYSTEM NAME": "human RAF1 (Homo sapiens)", "IC50": "< 0.01 µM"}
{"MOLECULE": "Cc1cc(F)c(NC(=O)N2CCCC3C2C3C(F)(F)F)cc1-c1cc(OCCO)nc(N2CCOCC2)c1 (single isomer, unassigned) [Example 108]", "SYSTEM NAME": "human RAF1 (Homo sapiens)", "IC50": "1 to 10 µM"}
{"MOLECULE": "Cc1cc(F)c(NC(=O)N2CCC(C(F)(F)F)C2)cc1-c1cc(OCCO)nc(N2CCOCC2)c1 (racemic)", "SYSTEM NAME": "human RAF1 (Homo sapiens)", "IC50": "< 0.01 µM"}
{"MOLECULE": "Cc1cc(F)c(NC(=O)N2CCC(C(F)(F)F)C2C)cc1-c1cc(OCCO)nc(N2CCOCC2)c1 (single isomer, unassigned) [Example 64]", "SYSTEM NAME": "human RAF1 (Homo sapiens)", "IC50": "0.1 to 1 µM"}
{"MOLECULE": "Cc1cc(F)c(NC(=O)N2CC[C@H](CC(F)(F)F)C2)cc1-c1cc(OCCO)nc(N2CCOCC2)c1 [Example 36]", "SYSTEM NAME": "human RAF1 (Homo sapiens)", "IC50": "< 0.01 µM"}
{"MOLECULE": "Cc1ccc(NC(=O)N2CC/C(=C\\C(F)(F)F)C2)cc1-c1cc(OCCO)nc(N2CCOCC2)c1", "SYSTEM NAME": "human RAF1 (Homo sapiens)", "IC50": "< 0.01 µM"}

Values from patent US20230081390A1
